The entries below are paired with their reported Kd.
Biological target: human C5 (human)
Assay: SPR, pH 5.8, 37C

BINDER: CFA0538 (antibody, V domains shown) VH: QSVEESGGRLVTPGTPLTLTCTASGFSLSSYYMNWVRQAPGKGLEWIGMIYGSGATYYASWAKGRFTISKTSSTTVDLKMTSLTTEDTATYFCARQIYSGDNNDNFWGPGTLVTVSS VL: AYDMTQTPASVEVAVGGTVTINCQASESISNWLAWYQQKPGQRPKLLIYRASTLASGVSSRFKGSGSGTQFTLTISGVECDDAATYYCQQDYSSSNVDNTFGGGTTVVVE
Kd, nM: 246
//
BINDER: CFA0501 (antibody, V domains shown) VH: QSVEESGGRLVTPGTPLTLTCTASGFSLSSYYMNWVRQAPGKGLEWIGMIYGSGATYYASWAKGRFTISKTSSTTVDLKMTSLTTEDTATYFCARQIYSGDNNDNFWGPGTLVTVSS VL: AYDMTQTPASVEVAVGGTVTINCQASESISNWLAWYQQKPGQRPKLLIYRASTLASGVSSRFKGSGSGTQFTLTISGVECDDAATYYCQQDYSSSNVDNTFGGGTKVVVE
Kd, nM: 174
//
BINDER: CFA0666 (antibody, V domains shown) VH: QSVEESGGRLVTPGTPLTLTCTVSGFSLSTYAMGWVRQAPGKGLEWIGTIDTGDNSFYANWAKGRFTISKTSTTVDLKITSPTAEDTATYFCARNDGSVYNLFNLWGPGTLVTVSS VL: DVVMTQTPASVSAAVGGTVTIKCQASENIYSALSWYQQKPGLRPRLLIYYASTLASGVPSRFKGSRSGTEFTLTISDLECADAATYYCQQYYDINSVDNTFGGGTKVVVE
Kd, nM: 33.3
